Data provenance is PubChem BioAssay (NCI).

Field: growth inhibition. Provide a value for each of the compounds that follow.
method: NCI Yeast Anticancer Drug Screen. Data for the mec2-1 strain (AID 157)
stated conditions: S. cerevisiae mec2-1 strain, at 50.0 µM, hits give high values
This is part of a sample that, as a whole, favours compounds with a hit. Of some 79,000 tested, about 15% had one in any assay.
One number for each entry, in %.

compound	units of measure	growth inhibition
Clc1ccccc1C(Nc1nc2ccccc2s1)Nc1nc2ccccc2s1	%	0.8
Cc1cccc(/C=C/c2csnn2)n1	%	-6.75
Cc1ccc(Cl)nn1	%	-1.25
CC1CCOC(/C=C/c2ccccc2)O1 (stereo not drawn)	%	-6.7
COc1cc(-c2c(C)oc(C)c2C(C)=O)ccc1OCc1ccccc1	%	-1.95

Would you be so kind as to report growth inhibition for each listed record?
1. CCCCCn1cnc2cc(N3CCOCC3)c([N+](=O)[O-])cc2c1=O
2. C[C@@]1(Cc2ccccc2)C(=O)N2[C@@H](CO)C(c3ccccc3)O[C@]2(C)c2ccccc21 (stereo partly drawn)
3. CCc1cccc(CC)c1N(C(C)=O)C(C)=O
4. CC1=CC=NN2C(=O)[C@H](C)C2C1 (stereo partly drawn)
5. CCCC(=O)Nc1ccccc1OC
6. COC(=O)c1c2c(cc3c1CC1(Cc4cc5c(cc4C1=O)CCC5)C3)CCC2 (stereo not drawn)
7. COC(=O)/C(=C\c1ccc(N(CCC#N)CCC#N)cc1)NC(=O)c1cc([N+](=O)[O-])ccc1Cl

A:
1. 34.9
2. 4.7
3. -1.3
4. 0.75
5. 12.7
6. -37
7. -3.65

Would you be so kind as to report growth inhibition for each listed record?
1. CCOC(=O)c1ccc(N2C(=S)N(C(=O)c3ccccc3)C(=Nc3ccccc3)C2=Nc2ccccc2)cc1
2. Cc1ccc(S(=O)(=O)N/N=C/c2cc([N+](=O)[O-])ccc2O)cc1
3. CN(C)c1ncnc2cn[nH]c12
4. C(CCN1CN(CCCCN2CCOCC2)CN(CCCCN2CCOCC2)C1)CN1CCOCC1
5. O=C(O)CCC(=O)Oc1ccc(O)c2c1CCCC2=O

A:
3.15
3.4
-5.75
4.75
1.65

Would you be so kind as to report growth inhibition for each listed record?
1. CCOC(=O)C1=NN(c2ccccc2)C(=O)/C1=C\N1C(=O)/C(=C/c2cccc(OC)c2O)SC1=S
2. C/C(=N\Nc1ccccc1)c1sc(-c2nc(C)c(/C(C)=N/Nc3ccccc3)s2)nc1C
3. CC(C)=CC1C(C(=O)O)C1(C)C (stereo not drawn)
4. Cc1c2ccccc2nc(CSc2n[nH]c(=S)s2)[n+]1[O-]
5. C1OCC(C2OCOC2C2OCOC2C2COCO2)O1 (stereo not drawn)
6. CCC(=O)OCCSCCOC(=O)CC

A:
8.55
-3.2
-13.2
18.6
20.9
5.65

Would you be so kind as to report growth inhibition for each listed record?
1. NCCN1CCOCC1
2. COC(=O)CCS/C=C/C(=O)O
3. O=C(O)C#Cc1ccccc1[N+](=O)[O-]
4. Cc1cc(NS(=O)(=O)c2ccc(NC(=O)c3ccc(Cl)c4c(Nc5ccc(S(N)(=O)=O)cc5)c5ccccc5nc34)cc2)no1
5. O=C(O)/C=N\Nc1nc2ccccc2[nH]1
6. O=[N+]([O-])c1ccc2c(c1)Cc1cc([N+](=O)[O-])ccc1-2

A:
1. -3
2. -8.6
3. 25.1
4. 36.8
5. -5.95
6. -64.5

Would you be so kind as to report growth inhibition for each listed record?
1. O=C(O)CSc1ccc2c3c(cccc13)C(=O)c1ccccc1-2
2. COc1ccc(COC=O)cc1
3. CC1c2c(cc(=O)n(Cc3ccccc3)c2O)C(=O)N1Cc1ccccc1 (stereo not drawn)
4. N#C/C(=C/c1ccc(Cl)cc1)C(=O)O
5. CCOC(=O)c1ccc(NCc2cccc([N+](=O)[O-])c2)cc1
6. CC(C(/C=N/NC(N)=S)=N/NC(N)=S)N1C(=O)c2ccccc2C1=O (stereo not drawn)
7. CCc1ccccc1-n1[nH]c(C)c(C=N)c1=O

A:
[27.4, -5.1, 16.9, -2.35, -18.5, -11.2, -18.1]

Would you be so kind as to report growth inhibition for each listed record?
1. O=C(O)C(Cc1ccc(O)cc1)NC(=O)C(CSC(c1ccccc1)(c1ccccc1)c1ccccc1)NC(c1ccccc1)(c1ccccc1)c1ccccc1 (stereo not drawn)
2. Cc1cccc(C(C)(C)C)c1NC(=O)C(=O)Cc1nc2ccccc2s1
3. O=C1NNCc2c1sc1ccccc21

A:
1. 30.9
2. 7.05
3. -4.15

Would you be so kind as to report growth inhibition for each listed record?
1. COc1ccc2oc3c(ccc[n+]3C)c(=O)c2c1
2. CN(C)CCC(=O)c1cccnc1

A:
1. -14.7
2. -17.1

Would you be so kind as to report growth inhibition for each listed record?
1. CCN(CC)c1ccc2c(c1)Cc1ccccc1-2
2. C#CC(O)C(CC)CCCC (stereo not drawn)
3. CN(C)/N=C1/CCCCC1C(O)(c1ccccc1)c1ccccc1 (stereo not drawn)
4. Cc1ccc([N+](=O)[O-])cc1Br

A:
1: 1.15; 2: -46.5; 3: -19.8; 4: -16.1

----------
method: NCI Yeast Anticancer Drug Screen. Data for the sgs1 mgt1 strain (AID 161);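 note: 0% = growth of cultures given vehicle only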
stated conditions: S. cerevisiae sgs1 mgt1 strain, at 50.0 µM, hits give high values
This is part of a sample that, as a whole, favours compounds with a hit. Of some 79,000 tested, about 15% had one in any assay.
measurement label: growth inhibition (%)
Answers are plain numbers, in %.

// solved cases for growth inhibition follow
compound	growth inhibition, %
O=C(CC(=O)Nc1ccccc1)NNC(c1cc(N=Nc2ccc(Br)cc2)ccc1O)P(O)O (stereo not drawn)	-10.4
CN1CC(C(N)=O)=CC(C(N)=O)C1 (stereo not drawn)	-8.15
O=C(O)c1c(-c2ccccc2)c(=O)[nH]c2ccccc12	-36.8
CC(=O)Oc1cc2c(cc1OC(C)=O)C1(C)CCC2(C)c2cc(OC(C)=O)c(OC(C)=O)cc21	3.6

Would you be so kind as to report growth inhibition for each listed record?
1. COc1ccccc1OCC(O)CO (stereo not drawn)
2. Oc1ccc2c(c1)c1ccccc1c1ncccc21
3. O=[N+]([O-])c1ccc(N2CCCC2)cc1
4. CN(C)/C=N/NC(=O)c1ccccc1N

A:
-14.8
43.6
-6.9
-6.75

Would you be so kind as to report growth inhibition for each listed record?
1. O=S(=O)(Oc1ccc(Cl)cc1)c1ccc(Br)cc1
2. COC(=O)Nc1cc2c3c(c1)CCCN3CCC2
3. CCCCCC(=O)Oc1ccccc1OC
4. COc1cc(C(=O)CC(=O)Cc2ccc3ccccc3n2)cc(OC)c1OC
5. CCOP(=O)(OCC)/C(C#N)=C/c1cnc(-c2ccccc2)[nH]1

A:
47.1
-2.2
1.15
0.9
-32.8

----------
method: NCI Yeast Anticancer Drug Screen. Data for the rad50 strain (AID 155);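 note: 0% = growth of vehicle-only cultures of the same strain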
stated conditions: S. cerevisiae rad50 strain growth inhibition; at 50.0 µM; hits give high values
Compounds without any hit were thinned out: in the full panel of roughly 79,000, 15% have a hit.
Field: growth inhibition. Provide a value for each of the compounds that follow.
Answers are plain numbers, in %.

// solved cases for growth inhibition follow
compound	growth inhibition, %
C1=C(C2=CCCCC2)CCCC1	-1.35
N#CC1CCCC/C1=N/NC(N)=O (configuration not stated)	-11.9
CCOc1ccc(/C=C2\CCc3ccccc3C2=O)cc1	16.4
CC1CN(CCCOC(=O)Nc2cccc3ccccc23)CCN1Cc1ccccc1 (configuration not stated)	81.2

Would you be so kind as to report growth inhibition for each listed record?
1. COCC1OCCN1C (configuration not stated)
2. O=c1[nH]ncc2ccccc12
3. CC1=CC(=O)c2ccc3c4ccccc4n(C)c3c2C1=O

A:
1: 12.7; 2: -3.1; 3: -16.7

----------
Field: growth inhibition. Provide a value for each of the compounds that follow.
method: NCI Yeast Anticancer Drug Screen. Data for the cln2 rad14 strain (AID 165);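 note: 0% = growth equal to vehicle treated cultures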
stated conditions: S. cerevisiae cln2 rad14 strain, at 50.0 µM, hits give high values
About 79,000 compounds went through this panel and 15% of them were active in at least one assay; those are over-represented in the sample as a whole. Activity calls are given as the source filed them. Rule as the data show it: active = growth inhibition above about 70%; inactive = the rest.

Would you be so kind as to report growth inhibition for each listed record?
1. Nc1cccc(NC(=O)c2cccc(N)c2)c1
2. CC(C)(C)c1ccc(O)c(C(O)c2cccnc2)c1 (stereo not given)
3. Cc1ccc(NC(=S)N2CCCC2)cc1
4. COC(=O)/C(=N\NC(=S)NN)C(C(=O)C(=O)Nc1ccccc1C(N)=O)c1nc2ccccc2[nH]c1=O (stereo not given)

A:
["10.4% (inactive)", "13.9% (inactive)", "-94.2% (inactive)", "-42.5% (inactive)"]

Would you be so kind as to report growth inhibition for each listed record?
1. O=C(OCC(O)C(O)C(O)COC(=O)c1ccccc1)c1ccccc1 (stereo not given)
2. O=C(OCCO)C1CC2CC1C1(C2)OCCO1 (stereo not given)
3. Nc1nnc2nc(CC(=O)c3ccc(F)cc3)c(CC(=O)c3ccc(F)cc3)nn12
4. O=C1CCC2CN(C(=O)c3ccccc3)CCC2C1 (stereo not given)
5. Cc1cc(N=Nc2ccc(N(C)C)cc2)ccn1
6. Cn1nc(-c2ccc(Cl)c(Cl)c2)[n+]([O-])c2c(=O)n(C)c(=O)nc1-2
7. CC(=O)n1cc(CS)c(=O)[nH]c1=O

A:
1. -23.6% (inactive)
2. -12.1% (inactive)
3. -2.7% (inactive)
4. 3.1% (inactive)
5. -52.8% (inactive)
6. 89% (active)
7. -15.2% (inactive)
